Reported Kd by item:
Target: Bromodomain testis-specific protein (Homo sapiens, UniProt Q58F21)
Assay: Binding affinity to BRDT bromodomain 1/2 (unknown origin) by BROMOscan assay
Respond with the bare value in µM.

C/C=C/Cn1cc(-c2ccc(C(C)(C)O)cc2OC)c2cc[nH]c2c1=O	1.2
C/C=C/Cn1cc(-c2cc(OC)c(C(C)(C)O)cc2OC)c2cc(C)[nH]c2c1=O	6.2

Now, please, on to the next molecule.
**Q:** Query the reported Kd for Bromodomain testis-specific protein (Homo sapiens, UniProt Q58F21); item: `C/C=C/Cn1cc(-c2ccc(C(=O)N3CCOCC3)cc2)c2cc[nH]c2c1=O`
**A:** 2.9

----------
Experiment: Cytotoxicity against human COLO 857 cells measured after 8 days
Format: functional, cell-based
Conditions: COLO 857, 192 h
Listed next: entries and their corresponding IC50.
Provide only the numeric value, understood in µM.

C/C=C/Cn1cc(-c2ccc(C(C)(C)O)cc2OC)c2cc[nH]c2c1=O	20

Query molecule follows.
**Q:** // query IC50 value for entry `C/C=C/Cn1cc(-c2ccc(C(=O)N3CCOCC3)cc2)c2cc[nH]c2c1=O`
**A:** 20

----------
Tested on: CCF-STTG1
Assay: Cytotoxicity against human CCF-STTG1 cells measured after 8 days
Assay type: functional, cell-based
Settings: CCF-STTG1, 192 h
Listing of entries alongside the reported IC50.
# value in µM; strip the unit string

C/C=C/Cn1cc(-c2ccc(C(C)(C)O)cc2OC)c2cc[nH]c2c1=O	20

**Q:** Notebook entry, CCF-STTG1 assay: IC50 of `C/C=C/Cn1cc(-c2ccc(C(=O)N3CCOCC3)cc2)c2cc[nH]c2c1=O` = ?
**A:** 20

----------
Test system: MDA-MB-157
Assay: Cytotoxicity against human MDA-MB-157 cells measured after 8 days
Format: functional, cell-based
Settings: MDA-MB-157, 192 h
REPORTED_PROPERTY: pIC50
// pIC50 here means minus log10 of the molar concentration (mol/L)

// known answers, use as guide
C/C=C/Cn1cc(-c2ccc(C(=O)N3CCOCC3)cc2)c2cc[nH]c2c1=O	4.70
C/C=C/Cn1cc(-c2ccc(C(C)(C)O)cc2OC)c2cc[nH]c2c1=O	4.70

**Q:** Could you tell me which pIC50 is on file for `C/C=C/Cn1cc(-c2cc(OC)c(C(=O)N3CCOCC3)cc2OC)c2cc(C)[nH]c2c1=O` ?
**A:** 5.70

----------
Test system: Huh-7
Test: Cytotoxicity against human Huh-7 cells measured after 8 days
Assay type: functional, cell-based
Details: Huh-7, 192 h
REPORTED_PROPERTY: pIC50
Value format note: pIC50 is -log10 of concentration (mol/L); just state the number.

C/C=C/Cn1cc(-c2ccc(C(=O)N3CCOCC3)cc2)c2cc[nH]c2c1=O	4.70

Now for the molecule whose pIC50 we want.
**Q:** Which value of pIC50 has been reported for `C/C=C/Cn1cc(-c2ccc(C(C)(C)O)cc2OC)c2cc[nH]c2c1=O` in the records?
**A:** 4.70

----------
Below: a set of entries, each annotated with reported Kd.
Molecular target: Transcription intermediary factor 1-alpha (Homo sapiens)
Sequence (O15164 whole entry, the tested form may be a part): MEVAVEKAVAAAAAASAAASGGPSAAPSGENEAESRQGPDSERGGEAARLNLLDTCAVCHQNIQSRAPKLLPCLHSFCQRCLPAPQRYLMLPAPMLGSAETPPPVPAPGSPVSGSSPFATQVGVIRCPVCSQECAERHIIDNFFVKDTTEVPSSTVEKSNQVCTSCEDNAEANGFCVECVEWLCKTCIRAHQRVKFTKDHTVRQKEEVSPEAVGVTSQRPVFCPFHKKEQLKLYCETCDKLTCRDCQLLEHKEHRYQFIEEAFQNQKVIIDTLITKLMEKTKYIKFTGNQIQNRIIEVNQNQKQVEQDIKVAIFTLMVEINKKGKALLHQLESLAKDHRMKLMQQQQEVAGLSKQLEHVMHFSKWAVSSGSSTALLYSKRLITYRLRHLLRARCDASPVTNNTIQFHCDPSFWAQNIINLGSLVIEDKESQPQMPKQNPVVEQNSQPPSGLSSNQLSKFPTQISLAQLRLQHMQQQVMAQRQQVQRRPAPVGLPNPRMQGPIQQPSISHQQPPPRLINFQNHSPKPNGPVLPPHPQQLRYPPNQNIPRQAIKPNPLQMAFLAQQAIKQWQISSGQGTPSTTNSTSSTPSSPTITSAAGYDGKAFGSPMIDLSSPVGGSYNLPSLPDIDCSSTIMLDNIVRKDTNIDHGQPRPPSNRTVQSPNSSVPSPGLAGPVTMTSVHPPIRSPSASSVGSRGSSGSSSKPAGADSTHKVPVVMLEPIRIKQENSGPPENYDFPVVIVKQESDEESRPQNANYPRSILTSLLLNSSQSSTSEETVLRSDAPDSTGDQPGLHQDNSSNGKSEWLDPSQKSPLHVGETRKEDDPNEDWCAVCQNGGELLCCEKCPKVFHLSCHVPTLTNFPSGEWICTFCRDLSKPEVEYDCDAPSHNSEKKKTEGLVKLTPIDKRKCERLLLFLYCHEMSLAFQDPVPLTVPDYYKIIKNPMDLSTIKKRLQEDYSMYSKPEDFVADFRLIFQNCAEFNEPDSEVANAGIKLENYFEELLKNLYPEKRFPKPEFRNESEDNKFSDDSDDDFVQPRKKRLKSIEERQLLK
Test: Binding affinity to human partial length TRIM24 (P790 to P977 residues) expressed in bacterial expression system by BROMOscan assay

C/C=C/Cn1cc(-c2cc(OC)c(C(=O)N3CCOCC3)cc2OC)c2cc(C)[nH]c2c1=O	> 10 µM

**Q:** Fill in the blank: the reported Kd of `C/C=C/Cn1cc(-c2ccc(C(C)(C)O)cc2OC)c2cc[nH]c2c1=O` is ____.
**A:** > 10 µM

**Q:** Using the record for `C/C=C/Cn1cc(-c2cc(OC)c(C(C)(C)O)cc2OC)c2cc(C)[nH]c2c1=O` , report its Kd.
**A:** > 10 µM

**Q:** Please give the measured Kd for this compound: `C/C=C/Cn1cc(-c2ccc(C(=O)N3CCOCC3)cc2)c2cc[nH]c2c1=O`
**A:** 26 µM

----------
Molecular target: Bromodomain testis-specific protein (Homo sapiens, UniProt Q58F21)
Assay: Binding affinity to human partial length BRDT bromodomain 2 (K250 to E382 residues) expressed in bacterial expression system by BROMOscan assay
REPORTED_PROPERTY: Kd (µM)
The answer is to be given in µM; state only the numeric part.

C/C=C/Cn1cc(-c2cc(OC)c(C(C)(C)O)cc2OC)c2cc(C)[nH]c2c1=O	6.6

**Q:** API: value(readout=Kd, system=Bromodomain testis-specific protein (Homo sapiens, UniProt Q58F21)) for record `C/C=C/Cn1cc(-c2ccc(C(=O)N3CCOCC3)cc2)c2cc[nH]c2c1=O`
**A:** 3.5

**Q:** Enter reported Kd observed with Bromodomain testis-specific protein (Homo sapiens, UniProt Q58F21) for `C/C=C/Cn1cc(-c2ccc(C(C)(C)O)cc2OC)c2cc[nH]c2c1=O`
**A:** 2.6

----------
System: YAPC
Assay: Cytotoxicity against human YAPC cells measured after 8 days
Assay type: functional, cell-based
Conditions: 192 h
Parameter pIC50: see the listing below.
The meaning of pIC50 here: minus log10 of the concentration in molar units.

C/C=C/Cn1cc(-c2ccc(C(C)(C)O)cc2OC)c2cc[nH]c2c1=O	4.70

**Q:** Reported pIC50, molecule `C/C=C/Cn1cc(-c2ccc(C(=O)N3CCOCC3)cc2)c2cc[nH]c2c1=O` : ____
**A:** 4.70

----------
Test system: SNU-C1
Assay: Cytotoxicity against human SNU-C1 cells measured after 8 days
Type: functional, cell-based
Settings: SNU-C1, 192 h
REPORTED_PROPERTY: pIC50
Entry type: numeric. Quantity: pIC50, the -log10 of concentration in molar units.

# example entries with known answers
C/C=C/Cn1cc(-c2ccc(C(=O)N3CCOCC3)cc2)c2cc[nH]c2c1=O	4.70
C/C=C/Cn1cc(-c2cc(OC)c(C(=O)N3CCOCC3)cc2OC)c2cc(C)[nH]c2c1=O	5.70

**Q:** Provide the documented pIC50 with SNU-C1 as the system for `C/C=C/Cn1cc(-c2ccc(C(C)(C)O)cc2OC)c2cc[nH]c2c1=O`
**A:** 4.70

----------
Consider the following molecules and their measured pIC50 readings.
Test: Cytotoxicity against human NCE-G 59 cells measured after 8 days
Assay type: functional, cell-based
Conditions: NCE-G 59, 192 h
Lab note: report pIC50 as minus log10 of the concentration in molar units, number only.

C/C=C/Cn1cc(-c2ccc(C(=O)N3CCOCC3)cc2)c2cc[nH]c2c1=O	4.70

**Q:** Need pIC50 of `C/C=C/Cn1cc(-c2ccc(C(C)(C)O)cc2OC)c2cc[nH]c2c1=O` , thanks.
**A:** 4.70

----------
System: AN3-CA
Experiment: Cytotoxicity against human AN3-CA cells measured after 8 days
Type: functional, cell-based
Details: 192 h
REPORTED_PROPERTY: IC50 (µM)
The reply should be a number in µM, with the unit left off.

C/C=C/Cn1cc(-c2ccc(C(C)(C)O)cc2OC)c2cc[nH]c2c1=O	20

In the following, a different compound is considered.
**Q:** Which IC50 is reported with AN3-CA for this entry: `C/C=C/Cn1cc(-c2ccc(C(=O)N3CCOCC3)cc2)c2cc[nH]c2c1=O` ?
**A:** 20

----------
Test: Cytotoxicity against human VP267 cells measured after 3 days
Type: functional, cell-based
Conditions: VP267, 72 h
REPORTED_PROPERTY: pIC50
Expect pIC50 as a plain number equal to -log10 of the molar concentration.

**Q:** Which pIC50 is listed for `C/C=C/Cn1cc(-c2cc(OC)c(C(=O)N3CCOCC3)cc2OC)c2cc(C)[nH]c2c1=O` ?
**A:** 5.30

----------
System: NCI-H929
Assay: Cytotoxicity against human NCI-H929 cells measured after 3 days
Assay type: functional, cell-based
Details: NCI-H929, 72 h
REPORTED_PROPERTY: IC50

**Q:** Consider the compound `C/C=C/Cn1cc(-c2cc(OC)c(C(=O)N3CCOCC3)cc2OC)c2cc(C)[nH]c2c1=O` and give its measured IC50.
**A:** 5 µM

----------
Experiment: Cytotoxicity against human KMM-1 cells measured after 8 days
Type: functional, cell-based
Details: KMM-1, 192 h
Listed here are molecules together with their documented pIC50.
Quick note: pIC50 values are minus log10 of concentrations in mol/L.

Look over these answered cases.
C/C=C/Cn1cc(-c2cc(OC)c(C(=O)N3CCOCC3)cc2OC)c2cc(C)[nH]c2c1=O	5.70
C/C=C/Cn1cc(-c2ccc(C(C)(C)O)cc2OC)c2cc[nH]c2c1=O	4.70

Kindly consider the entry below.
**Q:** Entry `C/C=C/Cn1cc(-c2ccc(C(=O)N3CCOCC3)cc2)c2cc[nH]c2c1=O` has what pIC50?
**A:** 4.70

Where do the numbers come from? From ChEMBL document CHEMBL5260810.
